The following compounds are shown together with reported melting point values.
Supply the numeric figure in °C, leaving out any unit text.

Known melting point results, listed for orientation:
O=C(N[C@H]1CC[C@H](CCN2CCN(c3ccc(F)cc3)CC2)CC1)C1=CCCC1	227
N#CCC(=O)N[C@H]1CC[C@H](CCN2CCN(c3cccc4c3CCC4)CC2)CC1	175
COCCCC(=O)N[C@H]1CC[C@H](CCN2CC=C(c3cccc(C#N)c3)CC2)CC1	178
CC(=O)CN1CCC(CCN2CCN(c3ccc4c(c3)OCO4)CC2)CC1	113
COc1cccc(N2CCN(CCC3CCN(CC(C)=O)CC3)CC2)c1.Cl.Cl	265
CCOCC(=O)N[C@H]1CC[C@H](CCN2CCN(c3cccc(F)c3F)CC2)CC1	140
Cl.Cl.N#Cc1cccc(N2CCN(CC[C@H]3CC[C@H](NC(=O)[C@@H]4CCCN4)CC3)CC2)c1 (stereo in doubt)	314

// melting point lookup, key: N#CCCCC(=O)N[C@H]1CC[C@H](CCN2CCN(c3cc(C(F)(F)F)c(Cl)cc3Cl)CC2)CC1 188

----------
# melting point listing for each entry below
Value expressed in °C; do not type the unit.

What melting point value was documented for this compound, COCCCC(=O)N[C@H]1CC[C@H](CCN2CC=C(c3ccc(F)cc3)CC2)CC1 ? 201

----------
Item-by-item account of melting point
Numbers only; they are read as °C.

Field: example entries. Status: answers known.
N#CCC(=O)N[C@H]1CC[C@H](CCN2CCN(c3cc(C#N)ccc3Cl)CC2)CC1	225
N#CCC(=O)N[C@H]1CC[C@H](CCN2CCN(c3ccc(Cl)cc3Cl)CC2)CC1	189
CC(=O)CN1CCC(CCN2CCN(c3ccc(C)cc3)CC2)CC1	92
Cc1ccc(N2CCN(CC[C@H]3CC[C@H](NC(=O)C4=CCCC4)CC3)CC2)cc1F	220
N#CCCCC(=O)N[C@H]1CC[C@H](CCN2CCN(c3cccc(F)c3C#N)CC2)CC1	175

Now for a further compound.
// lookup melting point for COc1ccc(N2CCN(CC[C@H]3CC[C@H](NC(=O)C4=CCCC4)CC3)CC2)cc1 205

----------
Measured melting point accompanies every entry in the list below.
Write the number in °C without appending the unit.

Previously resolved entries follow.
Cl.N#CCCCC(=O)N1CCC(CCN2CCN(c3cccc4c3CCC4)CC2)CC1	210
N#CCC(=O)N[C@H]1CC[C@H](CCN2CCc3cc(C#N)ccc3C2)CC1	206
COc1ccc(Cl)cc1N1CCN(CC[C@H]2CC[C@H](NC(=O)CCCC#N)CC2)CC1	152
CC(=O)CN1CCC(CCN2CCN(c3cc(C(F)(F)F)ccc3Cl)CC2)CC1.Cl.Cl	299

Next molecule, melting point to be filled in.
What measured melting point goes with N#CCCCC(=O)N[C@H]1CC[C@H](CCN2CCN(c3ccc(Cl)cc3)CC2)CC1 ? 190

----------
# key: entry, value: melting point

Fill in the blank: the reported melting point of Cc1ccc(Cl)cc1N1CCN(CC[C@H]2CC[C@H](NC(=O)CC(F)(F)F)CC2)CC1 is ____. 177 to 178 °C

Given the entry CC(=O)CN1CCC(CCN2CCN(c3cccc(F)c3C)CC2)CC1.Cl.Cl , report its measured melting point. 317 °C

Request the reported melting point associated with CC(=O)CN1CCC(CCN2CCN(c3ccc(F)c(C#N)c3Cl)CC2)CC1.Cl.Cl 291 °C

# get_value(readout='melting point', item= CC(=O)CN1CCC(CCN2CCN(c3cccc(C(C)C)c3)CC2)CC1.Cl.Cl ) 252 °C

Recorded melting point of N#CCC(=O)N[C@H]1CC[C@H](CCN2CCC(c3cccc(C(F)(F)F)c3)CC2)CC1 , please. 129 °C

Look at this compound and give its reported melting point. N#CCC(=O)N[C@H]1CC[C@H](CCN2CCN(c3cccc(F)c3)CC2)CC1 202 °C

I'd like to know its melting point. The compound in question is Cc1cc(N2CCN(CC[C@H]3CC[C@H](NC(=O)CC#N)CC3)CC2)c(Cl)cc1F 177 °C

The values you see were collected from patent US8802678B2.
